System: Target C
Experiment: Splicing RT-qPCR panel, Target C canonical junction (CJ) mRNA
Assay type: cell-based, human
Conditions: Homo sapiens, RT-qPCR panel, canonical junction mRNA; compound concentration having 50% response in CJ decrease; read-out: Target C IC50 (decrease in CJ mRNA levels)
pIC50: −log10 of the molar value.
What pIC50 was measured for each of the following?

State its pIC50: c1nc2c(-c3cn[nH]c3)ccc(-c3ccc(N4CCC(NC5CC5)C4)nn3)c2s1 (stereo not drawn)
< 5.00

State its pIC50: CN(c1ccc(-c2ccc(-n3cccn3)c3nc[nH]c23)nn1)[C@@H]1C[C@H]2CC[C@@H](C1)N2
< 5.00

State its pIC50: COc1cc(-c2ccc(-c3ccc(N(C)C4CC(C)(C)NC(C)(C)C4)nn3)c3ncsc23)cnn1
6.00 to 7.00

State its pIC50: CN(c1ccc(-c2ccc(-c3ccn(C)c(=O)c3)c3scnc23)nn1)C1CC(C)(C)NC(C)(C)C1
< 5.00

State its pIC50: c1nc2c(-c3cn[nH]c3)ccc(-c3ccc(N[C@@H]4C[C@H]5CC[C@@H](C4)N5)nn3)c2s1
6.00 to 7.00

State its pIC50: CN1C[C@@H]2[C@H](C1)[C@H]2N(C)c1ccc(-c2ccc(-c3cn[nH]c3)c3ncsc23)nn1
< 5.00

State its pIC50: CN(c1ncc(-c2ccc(-c3cn[nH]c3)c3ncsc23)nn1)[C@@H]1C[C@H]2CC[C@@H](C1)N2
6.00 to 7.00

State its pIC50: c1nc2c(-c3cn[nH]c3)ccc(-c3ccc(N4CCC5(CCN5)C4)nn3)c2s1 (stereo not drawn)
< 5.00

State its pIC50: CN(c1ncc(-c2ccc(-c3cn[nH]c3)c3ncsc23)nn1)C1CC2CCC(C1)N2 (stereo not drawn)
6.00 to 7.00

State its pIC50: CN(c1ccc(-c2cc(F)c(-c3cn[nH]c3)c3cn[nH]c23)nn1)[C@@H]1C[C@H]2CC(F)(F)[C@@H](C1)N2 (stereo in doubt)
6.00 to 7.00

State its pIC50: CN(c1ccc(-c2cc(F)c(-c3cn[nH]c3)c3cn[nH]c23)nn1)[C@@H]1C[C@H]2CC[C@@H](C1)N2
6.00 to 7.00

State its pIC50: CN1CCC12CCN(c1ccc(-c3ccc(-c4cn[nH]c4)c4ncsc34)nn1)C2 (stereo not drawn)
< 5.00

###

Test system: SMN2
Experiment: Splicing RT-qPCR panel, SMN2 canonical junction (CJ) mRNA
Format: cell-based, human
Settings: Homo sapiens, gene panel, CJ qPCR, protocol of Example 142; read-out: SMN2 IC50 (decrease in CJ mRNA levels)
What IC50 was measured for each of the following?

State its IC50: COc1nc(-c2ccc(NC3CCNCC3)nn2)ccc1-c1cn[nH]c1
100 to 1000 nM

State its IC50: CN(c1ccc(-c2ccc(-c3cn[nH]c3)c(OC3CC3)n2)nn1)[C@@H]1C[C@H]2CC[C@@H](C1)N2
< 100 nM

State its IC50: COc1nc(-c2ccc(N(C)[C@@H]3C[C@H]4CC[C@@H](C3)N4)cn2)ccc1-c1cn[nH]c1
> 10000 nM

State its IC50: COc1cc(-c2ccc(-c3ccc(N(C)[C@@H]4C[C@H]5CC[C@@H](C4)N5)nn3)nc2OC)cnn1
< 100 nM

State its IC50: CCOc1nc(-c2ccc(OC3CC(C)(C)NC(C)(C)C3)nn2)ccc1-c1cn[nH]c1
< 100 nM

State its IC50: COc1nc(-c2ccc(N(C)[C@@H]3C[C@H]4CC[C@@H](C3)N4)nc2)ccc1-c1cn[nH]c1
< 100 nM

State its IC50: COc1nc(-c2ccc(OC3CC(C)(C)NC(C)(C)C3)nn2)cnc1-c1cn[nH]c1
100 to 1000 nM

State its IC50: COc1nc(-c2ccc(OC3CC(C)(C)NC(C)(C)C3)nn2)ccc1-c1cn(C)nn1
100 to 1000 nM

State its IC50: COc1nc(-c2ccc(OC3CC4CCC(C3)N4)nn2)ccc1-n1cccn1 (stereo not drawn)
1000 to 10000 nM

State its IC50: COc1nc(-c2ccc(N[C@@H]3C[C@H]4CC[C@@H](C3)N4)nn2)ccc1-n1cccn1
100 to 1000 nM

State its IC50: Cc1nc(-c2ccc(N(C)[C@@H]3C[C@H]4CC[C@@H](C3)N4)nn2)ccc1-c1cn[nH]c1
100 to 1000 nM

State its IC50: COc1nc(-c2ccc(OC3CC(C)(C)NC(C)(C)C3)nn2)ccc1-c1cn[nH]c1
< 100 nM

State its IC50: COc1nc(-c2ccc(OC3CC(C)(C)NC(C)(C)C3)nc2)ccc1-c1cnn(C)c1
1000 to 10000 nM

State its IC50: COc1nc(-c2ccc(OC3CC4CC(F)(F)C(C3)N4)nn2)ccc1C1C=CC(F)=C1 (stereo not drawn)
1000 to 10000 nM

State its IC50: CN(c1ccc(-c2ccc(-c3cn[nH]c3)c(C(F)(F)F)n2)nn1)[C@@H]1C[C@H]2CC[C@@H](C1)N2
> 10000 nM

State its IC50: CNc1nc(-c2ccc(N(C)[C@@H]3C[C@H]4CC[C@@H](C3)N4)nn2)ccc1-c1cn[nH]c1
< 100 nM

State its IC50: COc1nc(-c2ccc(N(C)[C@H]3CCN[C@@H](C)C3)nn2)ccc1-n1cccn1
1000 to 10000 nM

State its IC50: COc1nc(-c2cnc(N(C)[C@@H]3C[C@H]4CC[C@@H](C3)N4)cn2)ccc1-c1cn[nH]c1
> 10000 nM

State its IC50: COc1nc(-c2ccc(O[C@@H]3C[C@H]4CC[C@@H](C3)N4)nn2)ccc1-c1cnc(C)s1
100 to 1000 nM

State its IC50: COc1nc(-c2ccc(O[C@@H]3C[C@H]4CC[C@@H](C3)N4)nn2)ccc1-c1cn(C)nn1
> 10000 nM

State its IC50: COc1nc(-c2ccc(N(C)[C@@H]3C[C@H]4CC[C@@H](C3)N4)nn2)ncc1-c1cn[nH]c1
1000 to 10000 nM

State its IC50: COc1nc(-c2ccc(N(C)[C@@H]3C[C@H]4CC[C@@H](C3)N4)nn2)ccc1-c1ccnc(O)c1
100 to 1000 nM

State its IC50: COc1nc(-c2ccc(OC3CC4CC(F)(F)C(C3)N4)nn2)cc(F)c1-c1cn[nH]c1 (stereo not drawn)
1000 to 10000 nM

State its IC50: COc1cc(-c2ccc(N3CCC(NC(C)(C)C)C3)nn2)ncc1-n1cccn1 (stereo not drawn)
100 to 1000 nM

State its IC50: COc1nc(-c2ccc(N(C)[C@@H]3C[C@H]4CC[C@@H](C3)N4)nn2)cnc1-c1cn[nH]c1
< 100 nM

State its IC50: COc1nc(-c2ccc(N[C@@H]3C[C@H]4CC[C@@H](C3)N4)nn2)ccc1-c1cn(C)nn1
100 to 1000 nM

State its IC50: COc1nc(-c2ccc(N(C)[C@@H]3CCN[C@H](C)C3)nn2)ccc1-c1cn[nH]c1
100 to 1000 nM

State its IC50: COc1nc(-c2ccc(N(C)[C@@H]3C[C@H]4CC[C@@H](C3)N4)nn2)ccc1-n1cccn1
100 to 1000 nM

State its IC50: COc1cc(-c2ccc(N(C)[C@@H]3C[C@H]4CC[C@@H](C3)N4)nn2)ccc1-c1cn[nH]c1
< 100 nM

State its IC50: CN(C)c1nc(-c2ccc(N(C)[C@@H]3C[C@H]4CC[C@@H](C3)N4)nn2)ccc1-c1cn[nH]c1
1000 to 10000 nM
